The reported numbers originate from PubChem BioAssay (NCATS).

Tested on: CP260
experiment-notes: qHTS profiling for inhibitors of Plasmodium falciparum proliferation (AID 504749); further: nearly all actives have a fitted effect of over 60% in size
assay-context: P. falciparum in erythrocytes, SYBR Green DNA, 72 h; series mostly up to 28.7 µM
Results filed as inconclusive are left out. Active and inactive are the calls of the source. The call rests on the fitted dose curve; in most records, active means well fitted inhibition curve with a large enough effect; inconclusive means small, poorly fitted or top-dose-only effect; inactive means flat fitted curve, though single readings scatter.
Result category, one only: active, inactive

Example entries begin here.
• CCCC(=O)O[C@]1(C(=O)COC(C)=O)CC[C@H]2C3C[C@H](F)C4=CC(=O)C=CC4(C)[C@@]3(F)[C@@H](O)CC21C (stereo not given in full) = inactive
• CC12C=CC(=O)C=C1[C@@H](F)CC1C2C(O)CC2(C)C1CC[C@]2(O)C(=O)CO (stereo not given in full) = inactive
• CC(=O)NC1[C@H](O)C[C@@](O)(C(=O)O)O[C@H]1[C@H](O)[C@H](O)CO (stereo not given in full) = inactive

Data request: Recorded test call requested for CCCCN1CC(O)C(O)C(O)C1CO (stereo not given)
Data returned: inactive

Data request: Query OCC1O[C@H](O[C@H]2C(O)C(O)C(O)O[C@@H]2CO)C(O)C(O)C1O (stereo not given in full) next
Data returned: inactive

Data request: Query OCC1O[C@@H](O[C@@H]2C(CO)OC(O)C(O)C2O)C(O)C(O)C1O (stereo not given in full) next
Data returned: inactive

Data request: Query COc1cc(/C=C2\CCC/C(=C\c3ccc(O)c(OC)c3)C2=O)ccc1O next
Data returned: active

Data request: Query CC(C)C(=O)OCC(=O)[C@@]12OC(C3CCCCC3)O[C@@H]1CC1C3CCC4=CC(=O)C=C[C@]4(C)C3[C@@H](O)C[C@@]12C (stereo not given in full) next
Data returned: active

Data request: Query C[C@H]1[C@@H](OC(=O)CCC(=O)O)OC2OC3(C)CC[C@H]4[C@H](C)CC[C@@H]1[C@@]24OO3 (stereo not given in full) next
Data returned: active

Data request: Query C[C@]12CC[C@@H]3c4ccc(O)cc4CC[C@H]3[C@@H]1C[C@H](O)C2O (stereo not given in full) next
Data returned: inactive

Data request: Query CCC(C)C(N)C(=O)O (stereo not given) next
Data returned: inactive

Data request: Query C=CC1CN2CCC1CC2[C@@H](O)c1ccnc2ccc(OC)cc12 (stereo not given in full) next
Data returned: active

Data request: Query CNC1C(O)C(OC2C(NC(=O)C(O)CN)CC(N)C(OC3OC(CN)C(O)C(O)C3O)C2O)OCC1(C)O (stereo not given) next
Data returned: inactive

Data request: Query O=C(O)Cc1sc(-c2ccc(Cl)cc2)nc1-c1ccccc1 next
Data returned: inactive

Data request: Query CCN(CC)C(=O)Nc1ccc(OC[C@H](O)CNC(C)(C)C)c(C(C)=O)c1 next
Data returned: inactive

====

assay-target: Cytochrome P450 3A4 (Homo sapiens) (UniProt P08684)
Sequence (P08684 whole entry, looked up): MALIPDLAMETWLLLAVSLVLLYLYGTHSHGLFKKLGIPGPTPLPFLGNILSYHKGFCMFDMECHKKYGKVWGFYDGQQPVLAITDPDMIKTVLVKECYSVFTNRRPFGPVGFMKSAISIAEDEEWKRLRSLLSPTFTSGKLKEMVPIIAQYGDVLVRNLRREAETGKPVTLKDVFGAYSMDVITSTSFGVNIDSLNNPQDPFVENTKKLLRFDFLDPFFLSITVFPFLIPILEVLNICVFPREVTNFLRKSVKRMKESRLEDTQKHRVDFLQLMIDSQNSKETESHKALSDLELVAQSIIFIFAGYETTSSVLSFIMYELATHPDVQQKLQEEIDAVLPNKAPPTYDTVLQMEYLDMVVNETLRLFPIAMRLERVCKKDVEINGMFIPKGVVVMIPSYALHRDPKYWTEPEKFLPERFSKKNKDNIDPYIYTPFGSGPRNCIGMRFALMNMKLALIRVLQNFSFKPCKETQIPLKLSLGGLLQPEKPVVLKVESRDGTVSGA
experiment-notes: qHTS Assay for Inhibitors and Substrates of Cytochrome P450 3A4 (AID 884); further: nearly all actives have a fitted effect of over 50% in size
assay-context: recombinant CYP3A4, Luciferin-PPXE luminescence; series mostly up to 57.1 µM
Inconclusive results are not listed. Calls of active or inactive are those of the source. The call rests on the fitted dose curve; in most records, active means well fitted inhibition curve with a large enough effect; inconclusive means small, poorly fitted or top-dose-only effect; inactive means no such curve, though single readings can be large or run the other way.
Result category, one only: Yes (active), No (inactive)

Example entries begin here.
• COc1cc2c(cc1OC)C(=O)N(C)CC2 = No
• Cc1nn(C)c(Cl)c1S(=O)(=O)N[C@@H](c1ccccc1)[C@]1(C)C[C@H]1[C@@H](C)C(=O)Nc1ccc2ccccc2c1 = Yes
• Cc1cc(C(=O)N[C@@H](c2ccccc2)[C@]2(C)C[C@H]2[C@@H](C)C(=O)Nc2ccc3ccccc3c2)n(C)n1 = Yes
• COC(=O)[C@@]1(Cc2ccc(F)cc2)[C@H]2c3cc(C(=O)N(C)C)n(Cc4ccc(C)c(F)c4F)c3C[C@H]2CN1C(=O)c1ccccc1 = Yes
• O=C(N[C@@H](c1ccccc1)[C@@H]1C[C@H]1C(=O)NCc1ccccn1)OCc1ccccc1 = Yes
• COCC1C2CC[C@H]3C(OCc4ccc(OC)cc4)OC[C@]4(C)[C@H]3C2=C(CN4C(=O)OC(C)(C)C)[C@H](C)C1COC (stereo partly drawn) = Yes

Data request: Recorded test call requested for COc1cc2c(cc1OC)-c1c(OC)c(OC)cc3ccnc(c13)C2=O
Data returned: Yes

Data request: Query COC(=O)[C@@]1(Cc2ccccc2)[C@H]2c3cc(C(=O)N4CCCC4)n(Cc4cccc5ccccc45)c3C[C@H]2CN1C(=O)c1ccccc1 next
Data returned: Yes
